target: Vasopressin V2 receptor (Homo sapiens); assay: Agonist activity at recombinant human vasopressin V2 receptor expressed in HEK293 cells by luciferase reporter gene assay; format: functional, cell-based; details: read-out: EC50
Sequence (P30518 whole entry): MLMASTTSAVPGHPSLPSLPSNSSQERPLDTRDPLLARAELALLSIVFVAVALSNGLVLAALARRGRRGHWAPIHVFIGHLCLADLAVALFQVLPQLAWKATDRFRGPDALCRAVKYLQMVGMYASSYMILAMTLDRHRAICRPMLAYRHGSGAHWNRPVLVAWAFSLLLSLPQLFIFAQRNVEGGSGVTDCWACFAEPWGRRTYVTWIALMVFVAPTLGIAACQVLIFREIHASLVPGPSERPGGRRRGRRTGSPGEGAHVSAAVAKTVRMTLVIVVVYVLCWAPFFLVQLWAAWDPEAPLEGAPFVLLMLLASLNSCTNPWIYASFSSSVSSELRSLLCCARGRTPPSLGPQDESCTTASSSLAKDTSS
Bridge positions count the residues as written; N and C are the ends. Square brackets hold non-standard residues; d marks the D form. Peptide text beside a SMILES is read from it. Ala(4-thiazolyl) = N[C@@H](Cc1cscn1)C(=O)O; Orn = NCCC[C@H](N)C(=O)O; Dab = NCC[C@H](N)C(=O)O
# Lookup of reported EC50 keyed by entry

Record excerpt, results attached:
molecule	value-observed
CC[C@H](C)[C@@H]1NC(=O)[C@H](Cc2ccccc2)NC(=O)[C@@H](N)CSSC[C@@H](C(=O)N2CCC[C@H]2C(=O)N[C@@H](CCCN)C(=O)NCC(N)=O)NC(=O)[C@H](CC(N)=O)NC(=O)[C@H](CCC(N)=O)NC1=O (H-CFIQNCP[Orn]G-NH2; disulfide 1-6)	155 nM
CC[C@H](C)[C@@H]1NC(=O)[C@H](Cc2ccccc2)NC(=O)[C@@H](N)CSSC[C@@H](C(=O)N2CCC[C@H]2C(=O)N[C@@H](CCCN)C(=O)NCC(N)=O)NC(=O)[C@H](CC(N)=O)NC(=O)[C@H](CCC(=O)NC)NC1=O (H-CFIE(NHMe)NCP[Orn]G-NH2; disulfide 1-6)	210 nM

Okay, now this molecule:
Entry under test: CC[C@H](C)[C@@H]1NC(=O)[C@H](Cc2cscn2)NC(=O)[C@@H](N)CSSC[C@@H](C(=O)N2CCC[C@H]2C(=O)N[C@@H](CCN)C(=O)NCC(N)=O)NC(=O)[C@H](CC(N)=O)NC(=O)[C@H](CCC(N)=O)NC1=O (H-C[Ala(4-thiazolyl)]IQNCP[Dab]G-NH2; disulfide 1-6) . Its EC50 was 2500 nM
